target of assay: T1, His-tagged human HER3 (human, UniProt P21860 20-643)
T1 construct: Antigen of the BLI experiments and of the HER2-Fc dimerisation ELISA; also called HER3 His; not shown: His tag
measurement description: BLI (Octet QK384), antibody on anti-human IgG capture tips, His-tagged human HER3 in solution, global one-site fit
Reported Kd is given for each of the following binders.
Report only the number, with the unit nM understood.

Problem: Which value of Kd has been reported for anti-HER3 clone 10D1_c91 IgG1 (antibody, V domains shown, Humanised 10D1 variant, IgG1/kappa) VH: QVQLQESGPGLVKPSQTLSLTCTVSGYYITSGYSWHWIRQHPGKGLEWIGSIRYSGGTDYNPSLKSLATISADTSKNQFSLKLSSVTAADTAVYYCARMTTAPWYPFDYWGQGTAVTVSS VL: DIQMTQSPSSVSASVGDRVTITCKASQIVGSNVAWYQQKPGKAPMPLIYSASYGYSGVPSRFSGSGSGTDFTLTISSLQPEDFATYYCQQYSSHPLTFGQGTKLEIKR in the records?
Result: 0.176

Would you kindly look at the next entry?
Problem: Which value of Kd has been reported for anti-HER3 clone 4-35-B2 IgG1 (antibody, V domains shown, Human-mouse chimeric IgG1/kappa) VH: EIQLQQSGPELVKPGASVKVSCKASGYSFTDYNMYWVKQSHGKSLEWIGHINPYNGGTTYNQKFKGRATLTVDKSSSTAFMHLNSLTSEDSAVYFCVSLRWGAMDYWGQGTSVTVSS VL: QIVLTQSPALMSASPGEKVTMTCSASSSVSYMYWYQQKPRSSPKPWIYLTSNLASGVPARFSGSGSGTSYSLTISSMEAEDAATYYCQQWNSNPYTFGGGTKLEIKR in the records?
Result: 80.9
